# TARGET_UNDER_TEST: human recombinant HDAC6 (Homo sapiens, UniProt Q9UBN7)
# EXPERIMENT: In vitro HDAC enzyme activity inhibition assay, HDAC6 (HDAC Fluorimetric Drug Discovery Kit)
# STUDY_CONDITIONS: human recombinant HDAC6, same protocol as the HDAC1 test
pIC50: −log10 of the molar value.
MEASUREMENT_TYPE: pIC50

As a guide, the following entries are already answered.
Item under review: CS(=O)(=O)c1ccc(Cc2cn3ccc(-c4nnc(C(F)F)o4)cc3n2)cc1 . Reported pIC50?
6.35

Item under review: CCN1CC(C(=O)N(Cc2cn3ccc(-c4nnc(C(F)F)o4)cc3n2)c2ccccc2)C1 . Reported pIC50?
6.37

a: CC(=O)N1CCC(C(=O)N(Cc2cn3ccc(-c4nnc(C(F)F)o4)cc3n2)c2cccc(F)c2)CC1
b: FC(F)c1nnc(-c2ccn3cc(Cc4ccc(C(F)(F)F)cc4)nc3c2)o1
Record comparison, field pIC50: mark the lower of a and b . Pick one; state its label.
b

A: CN1CCC(C(=O)N(Cc2cn3ccc(-c4nnc(C(F)F)o4)cc3n2)c2cccc(F)c2)CC1
B: COC(=O)N1CCC(C(=O)N(Cc2cn3ccc(-c4nnc(C(F)F)o4)cc3n2)c2ccccc2)CC1
Record comparison, field pIC50: mark the lower of A and B . Pick one; state its label.
B

a: Fc1ccc(OCc2cn3ccc(-c4nnc(C(F)F)o4)cc3n2)cc1F
b: O=C(C1CCN(C2CCCCC2)CC1)N(Cc1cn2ccc(-c3nnc(C(F)F)o3)cc2n1)c1ccccc1
Compare a and b by numeric pIC50 and name the larger one. Pick one; state its label.
a

----------
# TARGET_UNDER_TEST: human recombinant HDAC6 (Homo sapiens, UniProt Q9UBN7)
# Construct: purchased Calbiochem Inc. 382180
# EXPERIMENT: In vitro HDAC enzyme activity inhibition assay, HDAC6 (HDAC Fluorimetric Drug Discovery Kit)
# Format: biochemical
# STUDY_CONDITIONS: HDAC6 versus HDAC1
MEASUREMENT_TYPE: HDAC6 Selectivity (fold)

As a guide, the following entries are already answered.
Provide value of HDAC6 Selectivity (fold) for this record tested with human recombinant HDAC6 (Homo sapiens, UniProt Q9UBN7): O=C(N1CCN(C2COC2)CC1)N(Cc1cn2ccc(-c3nnc(C(F)F)o3)cc2n1)c1cccc(F)c1
156

Provide value of HDAC6 Selectivity (fold) for this record tested with human recombinant HDAC6 (Homo sapiens, UniProt Q9UBN7): O=C(C1CCC1)N1CC(C(=O)N(Cc2cn3ccc(-c4nnc(C(F)F)o4)cc3n2)c2ccccc2)C1
144

1: COC(=O)N1CCC(C(=O)N(Cc2cn3ccc(-c4nnc(C(F)F)o4)cc3n2)c2ccccc2)CC1
2: O=C(N1CCN(C2CCCCC2)CC1)N(Cc1cn2ccc(-c3nnc(C(F)F)o3)cc2n1)c1ccccc1
Compare 1 and 2 by numeric HDAC6 Selectivity (fold) and name the larger one. Pick one; state its label.
2

----------
# TARGET_UNDER_TEST: human recombinant HDAC6 (Homo sapiens, UniProt Q9UBN7)
# Construct: purchased Calbiochem Inc. 382180
# Sequence (Q9UBN7 1-1215): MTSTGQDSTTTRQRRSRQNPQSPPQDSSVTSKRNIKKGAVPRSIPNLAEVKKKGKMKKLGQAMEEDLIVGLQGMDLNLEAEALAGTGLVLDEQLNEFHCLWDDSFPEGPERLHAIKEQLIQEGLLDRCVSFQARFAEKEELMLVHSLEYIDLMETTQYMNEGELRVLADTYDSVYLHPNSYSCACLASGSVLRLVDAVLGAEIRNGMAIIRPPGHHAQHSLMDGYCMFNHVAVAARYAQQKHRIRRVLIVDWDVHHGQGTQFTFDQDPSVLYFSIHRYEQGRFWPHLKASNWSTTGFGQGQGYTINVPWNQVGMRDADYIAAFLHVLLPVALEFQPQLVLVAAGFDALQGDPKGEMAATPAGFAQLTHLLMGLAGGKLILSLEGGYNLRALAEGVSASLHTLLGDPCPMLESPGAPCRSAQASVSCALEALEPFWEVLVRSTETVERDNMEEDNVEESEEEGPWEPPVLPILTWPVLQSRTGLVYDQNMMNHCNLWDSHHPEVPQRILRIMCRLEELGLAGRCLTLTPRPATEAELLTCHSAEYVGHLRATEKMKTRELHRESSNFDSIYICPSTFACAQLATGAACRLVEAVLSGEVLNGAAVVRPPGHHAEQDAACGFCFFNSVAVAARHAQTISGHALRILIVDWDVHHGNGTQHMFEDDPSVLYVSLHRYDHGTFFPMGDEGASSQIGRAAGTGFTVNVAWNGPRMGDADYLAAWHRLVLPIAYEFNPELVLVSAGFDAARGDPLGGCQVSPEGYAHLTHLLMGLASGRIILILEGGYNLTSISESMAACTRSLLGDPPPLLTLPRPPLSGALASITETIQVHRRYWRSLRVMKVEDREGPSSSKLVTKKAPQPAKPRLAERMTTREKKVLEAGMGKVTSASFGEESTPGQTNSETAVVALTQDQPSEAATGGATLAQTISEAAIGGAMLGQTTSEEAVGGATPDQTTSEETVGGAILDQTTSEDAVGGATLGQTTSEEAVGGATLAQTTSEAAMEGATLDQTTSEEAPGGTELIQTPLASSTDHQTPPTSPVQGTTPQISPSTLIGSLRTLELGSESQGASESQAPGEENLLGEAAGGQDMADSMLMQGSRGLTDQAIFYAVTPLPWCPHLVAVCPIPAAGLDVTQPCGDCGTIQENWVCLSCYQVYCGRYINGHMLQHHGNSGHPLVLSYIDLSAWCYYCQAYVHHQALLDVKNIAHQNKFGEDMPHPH
# EXPERIMENT: In vitro HDAC enzyme activity inhibition assay, HDAC6 (HDAC Fluorimetric Drug Discovery Kit)
# Format: biochemical
# STUDY_CONDITIONS: HDAC6 versus HDAC1
MEASUREMENT_TYPE: HDAC6 Selectivity (fold)

As a guide, the following entries are already answered.
Provide value of HDAC6 Selectivity (fold) for this record tested with human recombinant HDAC6 (Homo sapiens, UniProt Q9UBN7): O=C(CO)N1CCC(C(=O)N(Cc2cn3ccc(-c4nnc(C(F)F)o4)cc3n2)c2cccc(F)c2)CC1
335

Provide value of HDAC6 Selectivity (fold) for this record tested with human recombinant HDAC6 (Homo sapiens, UniProt Q9UBN7): O=C(C1CN(c2ncccn2)C1)N(Cc1cn2ccc(-c3nnc(C(F)F)o3)cc2n1)c1ccccc1
205

Provide value of HDAC6 Selectivity (fold) for this record tested with human recombinant HDAC6 (Homo sapiens, UniProt Q9UBN7): O=C(N1CCN(C2CCOCC2)CC1)N(Cc1cn2ccc(-c3nnc(C(F)F)o3)cc2n1)c1cccc(F)c1
216

Provide value of HDAC6 Selectivity (fold) for this record tested with human recombinant HDAC6 (Homo sapiens, UniProt Q9UBN7): O=C(C1CN(C2COC2)C1)N(Cc1cn2ccc(-c3nnc(C(F)F)o3)cc2n1)c1cccc(F)c1
361

Provide value of HDAC6 Selectivity (fold) for this record tested with human recombinant HDAC6 (Homo sapiens, UniProt Q9UBN7): CC(CO)N1CCC(C(=O)N(Cc2cn3ccc(-c4nnc(C(F)F)o4)cc3n2)c2ccccc2)CC1 (stereo not drawn)
133

Provide value of HDAC6 Selectivity (fold) for this record tested with human recombinant HDAC6 (Homo sapiens, UniProt Q9UBN7): O=C(C1CCC1)N1CCC(C(=O)N(Cc2cn3ccc(-c4nnc(C(F)F)o4)cc3n2)c2cccc(F)c2)CC1
234

a: CC(CO)N1CCC(C(=O)N(Cc2cn3ccc(-c4nnc(C(F)F)o4)cc3n2)c2cccc(F)c2)CC1 (stereo not drawn)
b: CCC(=O)N1CCC(C(=O)N(Cc2cn3ccc(-c4nnc(C(F)F)o4)cc3n2)c2ccccc2)CC1
Record comparison, field HDAC6 Selectivity (fold): mark the lower of a and b . Pick one; state its label.
b
(b: 163 fold, a: 246 fold)

a: CC(=O)N1CCC(C(=O)N(Cc2cn3ccc(-c4nnc(C(F)F)o4)cc3n2)c2cccc(F)c2)CC1
b: CN1CCN(C(=O)N(Cc2cn3ccc(-c4nnc(C(F)F)o4)cc3n2)c2cccc(F)c2)CC1
Compare a and b by numeric HDAC6 Selectivity (fold) and name the larger one. Pick one; state its label.
a
